Exercise: state measured growth inhibition for each of the compounds provided.
# procedure_summary: A549 NSCLC cell proliferation inhibitors – ATP luminescence, human non-small cell lung line, primary screen (AID 371);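 note: compound exposure lasted 72 h before the ATP read; 0% = untreated cell signal and 100% = no luminescence left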
# condition_summary: at 10 µM, hits give high values
About 280 (8.5%) of roughly 3,300 compounds were called active. What follows is part of a selection rich in actives, with near analogues and random picks from the rest.
Write it as a number; the unit % goes unstated.

State, in one line, measured growth inhibition of Cc1nc2ccccn2c(=O)c1CCN1CCC(C(=O)c2ccc(F)cc2)CC1
6.06

State, in one line, measured growth inhibition of Cc1nccn1-c1cc(C(C)C)c(C#N)c2nc3ccccc3n12
2.71

State, in one line, measured growth inhibition of COc1cccc(C2=CC(c3ccc(N(C)C)cc3)n3nnnc3N2)c1 (centres undefined)
58.6

State, in one line, measured growth inhibition of CC(C)c1nc(NCCN2CCOCC2)c(C#N)c2c1COC(C)(C)C2
20.7

State, in one line, measured growth inhibition of CCc1nc(N)nc(N)c1-c1ccc(Cl)cc1
79.6

State, in one line, measured growth inhibition of CN(C)CCCN1c2ccccc2Sc2ccccc21
29.4

State, in one line, measured growth inhibition of COc1ccc(OC)c(C2/C(=C(\O)c3ccc4c(c3)OCCO4)C(=O)C(=O)N2CCCN(C)C)c1 (centres undefined)
7.35

State, in one line, measured growth inhibition of Cc1cc(C)n(-c2nnc(C)n2/N=C/c2ccccc2F)n1
-1.21

State, in one line, measured growth inhibition of COC(=O)c1cc(S(=O)(=O)N2CCOCC2)c(N2CCOCC2)cc1N1CCOCC1
8.19

State, in one line, measured growth inhibition of Cc1cc(=O)n2[nH]cnc2n1
4.42

State, in one line, measured growth inhibition of Clc1ccc(-n2ncc3c(NCc4ccco4)ncnc32)cc1
51.6

State, in one line, measured growth inhibition of Clc1ccc(-n2ncc3c(NCc4cccs4)ncnc32)cc1
20.6

State, in one line, measured growth inhibition of COc1cccc(C2=CC(c3ccccc3)n3nnnc3N2)c1 (centres undefined)
72.7

State, in one line, measured growth inhibition of CCC(NC(=O)Nc1nccs1)(C(F)(F)F)C(F)(F)F
2.27

State, in one line, measured growth inhibition of Cc1ccsc1C1NC(=O)c2c(sc3c2CCCC3)N1 (centres undefined)
45.3

State, in one line, measured growth inhibition of COc1ccc(C2=CC(c3ccc(C)cc3)n3nnnc3N2)cc1 (centres undefined)
27.9

State, in one line, measured growth inhibition of O=c1[nH]nc2n1CCCCC2
2.49

State, in one line, measured growth inhibition of CCOC(=O)c1c(NC(=O)CCN2CCOCC2)sc2c1CC(C)(C)OC2
5.84

State, in one line, measured growth inhibition of CC(C)(C)NCc1cc2ccccc2[nH]c1=O
4.01

State, in one line, measured growth inhibition of Cc1cccc(-n2ncc3c(NCCN4CCOCC4)ncnc32)c1
4.3

State, in one line, measured growth inhibition of Cn1c(Cn2cnc(Cl)c2Cl)nc2ccccc21
-4.26

State, in one line, measured growth inhibition of CCN(CC)CCNc1ncnc2c1[nH]c1ccc(OC)cc12
42.2

State, in one line, measured growth inhibition of CC(C)(C)OC(=O)N1CC=C2C(C#N)=C(N)C(C#N)(C#N)[C@H](c3cccnc3)[C@H]2C1
9.35

State, in one line, measured growth inhibition of CCC(=O)c1ccc(O)cc1
4.76

State, in one line, measured growth inhibition of Cc1ccc(-n2ncc3c(NCc4ccc5c(c4)OCO5)ncnc32)c(C)c1
52.8

State, in one line, measured growth inhibition of Cc1nc2sccn2c(=O)c1CCN1CCC(=C(c2ccc(F)cc2)c2ccc(F)cc2)CC1
92.5

State, in one line, measured growth inhibition of CCOC(=O)N1CCN(c2ncnc3c2[nH]c2ccc(OC)cc23)CC1
28.5

State, in one line, measured growth inhibition of Cc1ccc(-n2ncc3c(NCCCOC(C)C)ncnc32)c(C)c1
21.4

State, in one line, measured growth inhibition of COc1ccc2[nH]c3c(N4CCN(Cc5ccc6c(c5)OCO6)CC4)ncnc3c2c1
76.3

State, in one line, measured growth inhibition of CCSc1nnc(NC(=O)NCC(F)(F)F)s1
-0.28

State, in one line, measured growth inhibition of COC(=O)c1ccc(=O)n(Cc2ccc3c(c2)OCO3)c1
8.75

State, in one line, measured growth inhibition of CN1CCN(CCCCC(=O)c2ccccc2)CC1
6

State, in one line, measured growth inhibition of O=C(Nc1ncccc1Cl)c1cccc(F)c1
7.47

State, in one line, measured growth inhibition of O=C(CCC1CCCC1)N1CCC(N2CCN(c3ccccc3)CC2)CC1
17.9

* * *

# procedure_summary: A549 NSCLC cell proliferation inhibitors – ATP luminescence, human non-small cell lung line, primary screen (AID 371);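 note: compound exposure lasted 72 h before the ATP read; 0% = untreated cell signal and 100% = no luminescence left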
# condition_summary: at 10 µM, hits give high values
Hit rate of the full screen: of about 3,300 compounds, about 280 (8.5%) were called active. What follows is part of a selection rich in actives, with near analogues and random picks from the rest.
measured_endpoint: growth inhibition

State, in one line, measured growth inhibition of COc1cc([C@@H]2c3cc4c(cc3[C@H](O)[C@H]3COC(=O)[C@H]23)OCO4)cc(OC)c1OC
66.9% (active)

State, in one line, measured growth inhibition of COc1ccc2c(c1OC)C(=O)OC2C1c2c(cc3c(c2OC)OCO3)CCN1C (stereo unspecified)
23.2% (inactive)

State, in one line, measured growth inhibition of CCCCOc1ccc(C(=O)OC2CC(C)N(C)CC2C)cc1 (stereo unspecified)
90% (active)

State, in one line, measured growth inhibition of Cc1cc(C)n(-c2c(F)c(F)c(CN3CCCCC3)c(F)c2F)n1
9.57% (inactive)

State, in one line, measured growth inhibition of Cc1ccc(/C(O)=C2/C(=O)C(=O)N(Cc3ccco3)C2c2cccs2)cc1 (stereo unspecified)
-0.53% (inactive)

State, in one line, measured growth inhibition of COc1ccc2c(c1OC)C(=O)O[C@@H]2[C@H]1c2c(cc3c(c2OC)OCO3)CCN1C
28.5% (inactive)

State, in one line, measured growth inhibition of CCOC(=O)c1[nH]c2ccc(OC)cc2c1C
12.4% (inactive)

State, in one line, measured growth inhibition of N/C(=N\S(=O)(=O)c1ccc(Cl)s1)c1ccccc1
13.5% (inactive)

State, in one line, measured growth inhibition of CCCNCC(O)COc1ccccc1C(=O)CCc1ccccc1 (stereo unspecified)
54.2% (active)

State, in one line, measured growth inhibition of CC(C)COc1ccc(C(=O)OCCN2CCOCC2)c(O)c1
12.1% (inactive)

State, in one line, measured growth inhibition of CC1(C)CNC(=O)c2sc(N3CCOCC3)nc2C1
21.1% (inactive)

State, in one line, measured growth inhibition of N#CC(C#N)C(c1ccsc1)c1c(-c2ccccc2)[nH][nH]c1=O (stereo unspecified)
7.27% (inactive)

State, in one line, measured growth inhibition of CC1(C)CC(=O)C2=C(C1)OC(N)=C(C#N)C2C1C=CCCC1 (stereo unspecified)
5.77% (inactive)

State, in one line, measured growth inhibition of Cc1nn(-c2ccccc2)c2c1C(c1ccc(F)cc1F)C(C#N)=C(N)O2 (stereo unspecified)
17% (inactive)

State, in one line, measured growth inhibition of CCNc1nc(NC(C)C)nc(N(C#N)C(C)C(=O)N(C)C)n1 (stereo unspecified)
2.18% (inactive)

State, in one line, measured growth inhibition of CCCOc1ccccc1C(=O)NCCCC(=O)O
-12.4% (inactive)

State, in one line, measured growth inhibition of O=C(c1ccc(F)cc1)C1CCN(CCn2c(=O)[nH]c3ccccc3c2=O)CC1
8.97% (inactive)

State, in one line, measured growth inhibition of CCOC(=O)C1=C(CSc2nc3c(cc2C#N)CCC3)OC(N)=C(C#N)C1c1ccccc1 (stereo unspecified)
21% (inactive)

State, in one line, measured growth inhibition of O=C(Oc1ccccc1N1C(=O)CCC1=O)c1ccco1
6.54% (inactive)

State, in one line, measured growth inhibition of Cc1cc(O)c(C(C)C)cc1N=C1CSC(=O)N1
7.06% (inactive)

State, in one line, measured growth inhibition of N#Cc1nc(COc2ccccc2F)oc1NCCCn1ccnc1
5.01% (inactive)

State, in one line, measured growth inhibition of COC(=O)CSc1ncnc2c1sc1nc(-c3ccco3)c3c(c12)CC(C)(C)OC3
4.18% (inactive)

State, in one line, measured growth inhibition of CN1C(=S)SC(N(O)C(=O)Nc2ccccc2)C1(C)C (stereo unspecified)
8.85% (inactive)

State, in one line, measured growth inhibition of Clc1ccc(COc2ccccn2)c(Cl)c1
1.66% (inactive)

State, in one line, measured growth inhibition of Cc1cc(=O)[nH]c(COc2ccccc2)n1
6.76% (inactive)

State, in one line, measured growth inhibition of CCCCC(=O)Nc1c(O)c2ccccc2[nH]c1=O
3.38% (inactive)

State, in one line, measured growth inhibition of Cc1ccc(-c2nn(CCC(=O)NCC3CCCO3)c(=O)c3ccccc23)cc1 (stereo unspecified)
17.4% (inactive)

State, in one line, measured growth inhibition of COc1cccc(C2C(C(=O)c3cc4ccccc4o3)=C(O)C(=O)N2CCN(C)C)c1OC (stereo unspecified)
1.22% (inactive)

State, in one line, measured growth inhibition of CCCCCSc1nc(C)c(CC(=O)O)c(=O)[nH]1
-2.49% (inactive)

State, in one line, measured growth inhibition of COCc1cc(=O)[nH]c(Nc2nc3ccc(C)cc3o2)n1
70.6% (active)

State, in one line, measured growth inhibition of CC(C)(C)NCC(=O)c1c[nH]c2ccccc12
-2.93% (inactive)
